- experimental-target: T1, recombinant mouse α5β1 (rm-α5β1) (Mus musculus, UniProt P09055+P11688)
- T1 construct: purchased R&D Systems 7728-A5
- T1 sequence (P11688 45-898 limits assumed): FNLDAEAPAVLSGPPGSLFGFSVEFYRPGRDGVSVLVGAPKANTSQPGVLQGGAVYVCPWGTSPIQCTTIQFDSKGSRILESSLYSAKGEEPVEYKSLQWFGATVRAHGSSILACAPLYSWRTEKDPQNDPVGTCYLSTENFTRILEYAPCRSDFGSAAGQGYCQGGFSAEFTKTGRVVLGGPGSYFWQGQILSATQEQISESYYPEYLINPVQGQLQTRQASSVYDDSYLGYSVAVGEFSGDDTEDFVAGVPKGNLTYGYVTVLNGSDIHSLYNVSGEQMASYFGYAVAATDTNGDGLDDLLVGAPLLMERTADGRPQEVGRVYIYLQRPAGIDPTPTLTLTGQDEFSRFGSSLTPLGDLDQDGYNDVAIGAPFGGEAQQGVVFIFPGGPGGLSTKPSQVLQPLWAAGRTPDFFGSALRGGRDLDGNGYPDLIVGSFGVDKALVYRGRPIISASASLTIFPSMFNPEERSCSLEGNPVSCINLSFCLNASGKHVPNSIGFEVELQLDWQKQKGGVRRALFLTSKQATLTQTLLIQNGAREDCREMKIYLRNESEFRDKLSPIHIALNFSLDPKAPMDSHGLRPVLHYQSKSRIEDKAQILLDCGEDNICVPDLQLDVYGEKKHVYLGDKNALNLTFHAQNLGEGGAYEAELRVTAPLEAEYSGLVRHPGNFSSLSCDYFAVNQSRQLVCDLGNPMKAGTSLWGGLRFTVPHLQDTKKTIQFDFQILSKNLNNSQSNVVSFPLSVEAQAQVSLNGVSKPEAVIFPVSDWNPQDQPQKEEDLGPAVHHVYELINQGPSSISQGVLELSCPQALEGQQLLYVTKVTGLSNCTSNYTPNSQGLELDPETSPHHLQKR
- T1 sequence (P11688 899-999 limits assumed): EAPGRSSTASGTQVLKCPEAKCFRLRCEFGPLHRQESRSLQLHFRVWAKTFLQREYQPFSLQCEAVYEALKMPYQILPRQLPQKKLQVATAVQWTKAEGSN
- T1 sequence (P09055 21-728 limits assumed): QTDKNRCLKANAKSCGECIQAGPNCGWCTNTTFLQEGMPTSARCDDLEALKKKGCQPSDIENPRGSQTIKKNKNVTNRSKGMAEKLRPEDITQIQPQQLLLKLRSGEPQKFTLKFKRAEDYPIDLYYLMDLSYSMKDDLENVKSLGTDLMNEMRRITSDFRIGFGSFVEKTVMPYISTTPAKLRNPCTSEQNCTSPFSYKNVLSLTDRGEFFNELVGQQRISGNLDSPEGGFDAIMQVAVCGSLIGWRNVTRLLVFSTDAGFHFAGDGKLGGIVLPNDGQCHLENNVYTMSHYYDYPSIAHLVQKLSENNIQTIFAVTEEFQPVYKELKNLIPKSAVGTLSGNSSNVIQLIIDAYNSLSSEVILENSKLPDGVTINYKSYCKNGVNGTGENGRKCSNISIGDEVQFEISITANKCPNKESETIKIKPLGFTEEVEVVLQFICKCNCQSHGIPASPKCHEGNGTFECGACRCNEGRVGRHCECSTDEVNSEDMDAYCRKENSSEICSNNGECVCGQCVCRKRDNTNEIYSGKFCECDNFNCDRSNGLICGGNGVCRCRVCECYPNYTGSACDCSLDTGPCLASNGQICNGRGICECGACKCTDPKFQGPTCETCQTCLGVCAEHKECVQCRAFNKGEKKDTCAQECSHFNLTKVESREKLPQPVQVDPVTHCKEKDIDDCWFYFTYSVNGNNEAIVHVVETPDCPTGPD
- experimental-protocol: Plate-based ELISA cross-reactivity to rm-α5β1
- Format: binding
- assay-setup: hybridoma supernatant diluted 1:10; plate coated with rm-α5β1
// reported Absorbance 450 nm Mouse α5β1 for each item listed
Give only the figure.

1) A2-8H11: hybridoma clone positive on K562 cells (antibody, V domains shown) VH: QVQLKESGPGLVAPSQSLSITCTISGFSLTTYGVHWVRQPPGKGLEWLVVIWSDGSTTYNSALKSRLNITKDNSKSQVFLKMNSLQTDDTAMYYCVRHGGLLRRDAMDYWGQGTSVTVSS VL: QIVLTQSPAIMSASLGERVTMTCTASSSVSSNSFHWYQQKPGSSPKLWLYSTSNLASGVPARFSGSGSGTSYSLTISSMEAEDAATYYCHQYLRSPPTFGGGTKLEIK; 0.0515
2) A2-6C10: hybridoma clone positive on K562 cells (antibody, V domains shown) VH: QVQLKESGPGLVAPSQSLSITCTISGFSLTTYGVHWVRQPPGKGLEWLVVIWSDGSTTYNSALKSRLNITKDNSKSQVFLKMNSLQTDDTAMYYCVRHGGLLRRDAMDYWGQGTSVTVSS VL: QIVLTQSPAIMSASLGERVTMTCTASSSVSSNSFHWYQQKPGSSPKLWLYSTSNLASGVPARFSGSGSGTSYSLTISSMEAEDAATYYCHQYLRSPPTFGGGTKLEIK; 0.0551

Next up:
Challenge: Given the molecule A2-9A11: hybridoma clone positive on K562 cells (antibody, V domains shown) VH: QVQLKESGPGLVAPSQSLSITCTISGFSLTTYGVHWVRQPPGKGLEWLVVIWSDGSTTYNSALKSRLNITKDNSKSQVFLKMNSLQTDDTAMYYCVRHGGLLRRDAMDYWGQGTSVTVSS VL: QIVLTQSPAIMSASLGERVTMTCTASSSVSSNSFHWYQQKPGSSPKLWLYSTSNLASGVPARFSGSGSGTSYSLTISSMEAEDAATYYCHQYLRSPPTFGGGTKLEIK , what is its reported Absorbance 450 nm Mouse α5β1?
Response given: 0.0619
